experiment: Viability qHTS for spleen associated tyrosine kinase inhibitor (SYKi) drug resistant MV4-11 cells (AID 1963824); conditions: SYKi-resistant MV4-11 viability, CellTiter-Glo, 72 h; series mostly up to 45 µM; also: nearly all actives have a fitted effect of over 35% in size; also: potency is read from the fitted curve at half-maximal effect
Inconclusive results are not listed. Calls of active or inactive are those of the source. Calls follow the shape of the dose curve; as a rule, active = well fitted cell-killing curve with a large enough effect; inconclusive = small, poorly fitted or top-dose-only effect, or effect the other way; inactive = no such curve, though single readings can be large or run the other way.

>  <molecule>
CC(=O)O[C@@H]1[C@H]2CC[C@H]3[C@@](C)(O)[C@@H]4C[C@H](O)C(C)(C)[C@@]4(O)[C@H](O)C[C@@]13C[C@@]2(C)O

>  <Potency>
inactive

$$$$
>  <molecule>
C1=C(c2cnc[nH]2)c2ccsc2CC1

>  <Potency>
inactive

$$$$
>  <molecule>
CN1CCCCC1Cn1cc(C(=O)c2cc([N+](=O)[O-])ccc2I)c2ccccc21 (stereo unspecified)

>  <Potency>
10.3 µM (active)

$$$$
>  <molecule>
O=C(O)CCCc1ccc(N(CCCl)CCCl)cc1

>  <Potency>
inactive

$$$$
>  <molecule>
COP(=O)(OC)C(O)C(Cl)(Cl)Cl (stereo unspecified)

>  <Potency>
inactive

$$$$
>  <molecule>
CC[C@H](C)[C@@H]([C@@H](CC(=O)N1CCC[C@H]1[C@H](OC)[C@@H](C)C(=O)N[C@@H](Cc1ccccc1)c1nccs1)OC)N(C)C(=O)[C@@H](NC(=O)C(C)(C)N)C(C)C

>  <Potency>
inactive

$$$$
>  <molecule>
C[C@@H]1O[C@@H](OC2CCC3(C=O)C(CCC4C3CCC3(C)C(C5=CC(=O)OC5)C(O)CC43O)C2)[C@H](O)[C@H](O)[C@H]1O[C@@H]1O[C@H](CO)[C@@H](O)[C@H](O)[C@H]1O (stereo partly specified)

>  <Potency>
1.72 µM (active)

$$$$
>  <molecule>
C[C@@H]1CC[C@@]2(OC1)O[C@H]1C[C@H]3[C@@H]4CC=C5C[C@@H](O[C@@H]6O[C@H](CO)[C@@H](O[C@@H]7O[C@@H](C)[C@H](O)[C@@H](O)[C@H]7O)[C@H](O)[C@H]6O[C@@H]6O[C@@H](C)[C@H](O)[C@@H](O)[C@H]6O)CC[C@]5(C)[C@H]4CC[C@]3(C)[C@H]1[C@@H]2C

>  <Potency>
1.66 µM (active)

$$$$
>  <molecule>
CCC1(c2cccc(O)c2)CCCCN(C)C1 (stereo unspecified)

>  <Potency>
inactive

$$$$
>  <molecule>
C/C1=C/C[C@@H](/C(C)=C/c2csc(C)n2)OC(=O)C[C@H](O)C(C)(C)C(=O)[C@H](C)[C@@H](O)[C@@H](C)CCC1

>  <Potency>
0.0332 µM (active)

$$$$
>  <molecule>
CCC(C)C(C)(COC(N)=O)COC(N)=O (stereo unspecified)

>  <Potency>
inactive

$$$$
>  <molecule>
Cn1c(COP(=O)(NCCBr)NCCBr)cnc1[N+](=O)[O-]

>  <Potency>
5.9 µM (active)

$$$$
>  <molecule>
C=C[C@H]1[C@H](O[C@@H]2O[C@H](CO)[C@@H](O)[C@H](O)[C@H]2O)OC=C2C(=O)OCC[C@H]21

>  <Potency>
inactive

$$$$
>  <molecule>
CC(Cc1ccccc1)N(C)Cc1ccco1 (stereo unspecified)

>  <Potency>
inactive

$$$$
>  <molecule>
C[C@]12CC[C@H](O)CC1=CC[C@@H]1C2CC[C@]2(C)[C@@H](C3=CC(=O)OC3)CC[C@]12O (stereo partly specified)

>  <Potency>
4.04 µM (active)

$$$$
>  <molecule>
CCCOC(=O)c1cncn1C(C)c1ccccc1 (stereo unspecified)

>  <Potency>
inactive

$$$$

----------
assay: Quantitative highthroughput screen to assess conditional lethalithy of NOMO1 cells grown in RPMI1640 with dialyzed fetal bovine serum (RPMI+ds) (AID 1963877); conditions: NOMO1 in RPMI+dialyzed FBS viability, ATP luminescence, 48 h; series mostly up to 45.8 µM; also: nearly all actives have a fitted effect of over 30% in size;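 as to viability: 100% = DMSO control wells and 0% = empty wells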
Records with an inconclusive call do not appear. Calls of active or inactive are those of the source. Calls come from the whole dose curve; as a rule, active = well fitted cell-killing curve with a large enough effect; inconclusive = small, poorly fitted or top-dose-only effect; inactive = flat fitted curve, though single readings scatter.
Classes used: label 1 for active, label 0 for inactive

>  <compound>
C=C[C@@H]1CN2CCC1C[C@H]2[C@H](O)c1ccnc2ccccc12 (stereo partly specified)

>  <cat>
label 1

$$$$
>  <compound>
CN1CCN(c2ccc([N+](=O)[O-])c3no[n+]([O-])c23)CC1

>  <cat>
label 0

$$$$
>  <compound>
CC(=O)Nc1ccc(OC[C@](C)(O)C(=O)Nc2ccc([N+](=O)[O-])c(C(F)(F)F)c2)cc1

>  <cat>
label 0

$$$$
>  <compound>
C[C@](O)(COc1ccc(C#N)cc1)C(=O)Nc1ccc(C#N)c(C(F)(F)F)c1

>  <cat>
label 0

$$$$
>  <compound>
C#CCN(C)[C@H](C)Cc1ccccc1

>  <cat>
label 0

$$$$
>  <compound>
O=C(O)c1nn(Cc2ccc(Cl)cc2Cl)c2ccccc12

>  <cat>
label 0

$$$$

----------
test: Quantitative highthroughput screen to assess conditional lethalithy of NOMO1 cells grown in RPMI1640 with untreated serum (RPMI+s) (AID 1963876); details: NOMO1 AML cells in RPMI+serum, CellTiter-Glo viability, 48 h; series mostly up to 45.8 µM; also: nearly all actives have a fitted effect of over 35% in size;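 as to viability: 100% = DMSO wells and 0% = empty wells without cells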
Records with an inconclusive call do not appear. Activity calls are given as the source filed them. Calls come from the whole dose curve; as a rule, active = well fitted cell-killing curve with a large enough effect; inconclusive = small, poorly fitted or top-dose-only effect; inactive = flat fitted curve, though single readings scatter.
Classes used: active, inactive

>  <compound>
CCN1C[C@]2(OC(=O)c3ccccc3NC(C)=O)CC[C@H](OC)[C@@]34[C@H]5CC6[C@@H](OC)C[C@](O)(C(C[C@@H]23)[C@@H]14)[C@@]5(O)[C@@H]6OC

>  <cat>
inactive

$$$$
>  <compound>
C[C@@H]1[C@H](O)[C@@H](C)C=CC=CCCC=CC=CC=CC=C[C@H](O[C@H]2O[C@@H](C)[C@H](O)[C@@H](N)[C@@H]2O)CC2O[C@](O)(C[C@@H](O)[C@H](O)CC[C@@H](O)C[C@@H](O)C[C@@H](O)CC(=O)O[C@H]1C)C[C@H](O)[C@H]2C(=O)O

>  <cat>
inactive

$$$$
>  <compound>
O=c1[nH]c2ccc(Cl)cc2c(N[C@@H]2CN3CCC2CC3)c1-c1nc2ccccc2[nH]1

>  <cat>
active

$$$$
>  <compound>
CN1CCN(C(=O)O[C@H]2c3nccnc3C(=O)N2c2ccc(Cl)cn2)CC1

>  <cat>
inactive

$$$$
>  <compound>
CC(C)(C)[C@]1(O)C[C@@H]2OC(=O)C[C@@]23C(=O)O[C@@H]2OC(=O)[C@H](O)C213 (stereo partly specified)

>  <cat>
inactive

$$$$
>  <compound>
C[C@H]([C@H](O)CCC(C)(C)O)[C@H]1CC[C@@]2(O)C3=CC(=O)[C@@H]4C[C@@H](O)[C@@H](O)C[C@]4(C)[C@@H]3CC[C@]12C

>  <cat>
inactive

$$$$
>  <compound>
CO[C@H]1CCC(O[C@H]2C[C@H]([C@]3(C)CC[C@]4(C[C@H](O)[C@@H](C)[C@@H]([C@@H](C)C=C(C)C(=O)[C@H](C)C[C@H](C)C(=O)O)O4)O3)O[C@]3(O[C@@H]([C@H]4O[C@@](O)(CO)[C@H](C)C[C@H]4C)C[C@H]3C)[C@H]2C)O[C@H]1C (stereo partly specified)

>  <cat>
active

$$$$
>  <compound>
CC(C)(O)C=CC(=O)[C@](C)(O)[C@H]1[C@H](O)C[C@]2(C)[C@@H]3CC=C4[C@@H](C=C(O)C(=O)C4(C)C)[C@]3(C)C(=O)C[C@@]12C

>  <cat>
active

$$$$
>  <compound>
CN[C@@H]1Cc2cccc3[nH]c(=O)n(c23)C1

>  <cat>
inactive

$$$$
>  <compound>
C[C@](O)(CS(=O)(=O)c1ccc(F)cc1)C(=O)Nc1ccc(C#N)c(C(F)(F)F)c1

>  <cat>
inactive

$$$$
>  <compound>
CC1=C2C[C@@H]3[C@@H](CC=C4C[C@@H](O)CC[C@@]43C)[C@@H]2CC[C@]12O[C@H]1C[C@H](C)CN[C@H]1[C@H]2C

>  <cat>
inactive

$$$$
>  <compound>
C[C@H]1CCCC=CC2C[C@H](O)C[C@@H]2[C@H](O)C=CC(=O)O1 (stereo partly specified)

>  <cat>
inactive

$$$$
>  <compound>
CN1C(=O)CCS(=O)(=O)C1c1ccc(Cl)cc1 (stereo unspecified)

>  <cat>
inactive

$$$$
>  <compound>
COc1ccc2c(c1OC)CN1CCc3cc4c(cc3C1C2)OCO4 (stereo unspecified)

>  <cat>
active

$$$$
>  <compound>
O=C(O)c1nn(Cc2ccc(Cl)cc2Cl)c2ccccc12

>  <cat>
inactive

$$$$
>  <compound>
CCNC(=O)CC1N=C(c2ccc(Cl)cc2)c2cc(OC)ccc2-n2c(C)nnc21 (stereo unspecified)

>  <cat>
inactive

$$$$
